# Test system: Trichoderma virens ATCC 9645
# procedureSummary: growth yield (OD600) relative to untreated control; higher = less growth inhibition
# conditionDescription: compound concentration: 100 uM; 72 h
Counter-ions that a name gives are not always drawn. The whole screen tested about 1,300 compounds, of which about 75 (6%) showed an effect of 50% or more. Only a selection was taken, and strong results are over-represented in it overall.
growth yield: recorded values

// field: growth yield; key: CC(C)(O/N=C(\C(=O)N[C@@H]1C(=O)N2C(C(=O)[O-])=C(C[n+]3ccccc3)CS[C@H]12)c1csc(N)n1)C(=O)O [Ceftazidime pentahydrate] ; value = 102%

// field: growth yield; key: NS(=O)(=O)Cc1noc2ccccc12 [Zonisamide] ; value = 98.8%

// field: growth yield; key: O=C1NCCN1CCN1CCC(c2cn(-c3ccc(F)cc3)c3ccc(Cl)cc23)CC1 ; value = 111%

Further cases:
// field: growth yield; key: CCOC(=O)[C@H](CCc1ccccc1)N[C@@H](C)C(=O)N1Cc2ccccc2C[C@H]1C(=O)O [Quinapril hydrochloride] ; value = 98.1%

// field: growth yield; key: CCCCCOC(=O)Nc1nc(=O)n([C@@H]2O[C@H](C)[C@@H](O)[C@H]2O)cc1F ; value = 103%

// field: growth yield; key: Cc1cnc(C(=O)NCCc2ccc(S(=O)(=O)NC(=O)NC3CCCCC3)cc2)cn1 [Glipizide] ; value = 104%

// field: growth yield; key: O=C(O)c1cn(-c2ccc(F)cc2)c2cc(N3CCNCC3)c(F)cc2c1=O ; value = 97%

// field: growth yield; key: C[C@]1(Cn2ccnn2)[C@H](C(=O)O)N2C(=O)C[C@H]2S1(=O)=O ; value = 96.8%

---

growth yield: recorded values
# Tested on: Trichoderma virens ATCC 9645
# procedureSummary: growth yield (OD600) relative to untreated control; higher = less growth inhibition
# conditionDescription: compound concentration: 100 uM; 72 h
Where a name gives a salt, the structure may show the parent alone. Among all 1,300 compounds or so, about 75 (6%) showed an effect of 50% or more. The list comes from a sample in which strong results are over-represented; it also holds close analogues and randomly drawn compounds.
Write it as a number; the unit % goes unstated.

Kindly note: Trichoderma virens ATCC 9645, CCCCC(CC)CNC(=N)NC(=N)NCCCCCCNC(=N)NC(=N)NCC(CC)CCCC (stereo not drawn) [Alexidine dihydrochloride] , growth yield value reported: 1.89

Kindly note: Trichoderma virens ATCC 9645, CC[C@H]1OC(=O)C[C@@H](O)[C@H](C)[C@@H](O[C@@H]2O[C@H](C)[C@@H](O[C@H]3C[C@@](C)(O)[C@@H](O)[C@H](C)O3)[C@H](N(C)C)[C@H]2O)[C@@H](CC=O)C[C@@H](C)C(=O)/C=C/C(C)=C/[C@@H]1CO[C@@H]1O[C@H](C)[C@@H](O)[C@@H](OC)[C@H]1OC , growth yield value reported: 94.2

Kindly note: Trichoderma virens ATCC 9645, CN(C)CCOC1=Cc2ccccc2Sc2ccc(Cl)cc21 [Zotepine] , growth yield value reported: 114

Kindly note: Trichoderma virens ATCC 9645, Cc1cccc(C)c1NC(=O)CN1CCN(CCCC(c2ccc(F)cc2)c2ccc(F)cc2)CC1 , growth yield value reported: 114

Kindly note: Trichoderma virens ATCC 9645, CCCSc1ccc2[nH]c(NC(=O)OC)nc2c1 , growth yield value reported: 84.3

Further cases:
Kindly note: Trichoderma virens ATCC 9645, COc1ccc(C(=O)c2ccccc2)c(O)c1 , growth yield value reported: 62.9

Kindly note: Trichoderma virens ATCC 9645, COc1ccc(C(=O)c2ccccc2O)c(O)c1 , growth yield value reported: 45.1

Kindly note: Trichoderma virens ATCC 9645, CCCCc1ccc2[nH]c(NC(=O)OC)nc2c1 , growth yield value reported: 95.9

This collection of values is drawn from the supplement of paper PMC8007513.
